Biological target: Voltage-gated inwardly rectifying potassium channel KCNH2 (Homo sapiens)
Experiment: hERG protection against dofetilide inhibition, confirmation, cell-based, thallium flux, duplicate retest, dofetilide IC70 (AID 1835)
Settings: hERG cell line, FluxOR thallium flux, dofetilide-blocked; at 10 µM
The campaign covered roughly 2,400 compounds. About 750 (31%) were called active.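 The calls were made as follows: active = median signal gain over dofetilide-blocked control wells reaching their mean plus 3 SD, so readout 1 at least 0; inactive = the rest.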 Some of the results follow.
Return exactly one item of active, inactive

## Input Outcome? `O=C(c1ccccc1)N1CCc2ccccc21`
## Output inactive

## Input Next molecule up: `CCOc1cc(/C=C2/C(=O)ON=C2C)ccc1O`
## Output inactive

## Input Next molecule up: `CCOc1ccc(/C=C2\CCc3ccccc3C2=O)cc1`
## Output inactive

## Input Next molecule up: `O=C(O)c1ccc(Cl)cc1Nc1nc2cc(Cl)ccc2o1`
## Output active

## Input Next molecule up: `Cc1[nH]n(-c2cccc3ccccc23)c(=O)c1/C=N/c1sc2c(c1C#N)CCC2`
## Output active

## Input Next molecule up: `CCOC(=O)c1c(C=O)c(C)n(Cc2ccccc2)c1C`
## Output inactive

## Input Next molecule up: `O=C(NC(=S)N1CCc2ccccc21)c1ccccc1Cl`
## Output active

## Input Next molecule up: `COc1ccccc1CNC(=O)CCCC(=O)n1ncc2cc(C)ccc21`
## Output inactive

## Input Next molecule up: `O=C(NC(=S)N1CCc2ccccc21)c1ccc(Br)o1`
## Output active

## Input Next molecule up: `CCOC(=O)c1c(C)cccc1OCC(N)=O`
## Output inactive

## Input Next molecule up: `CCOC(=O)Cn1cc(C=O)c2ccccc21`
## Output inactive

## Input Next molecule up: `CCOC(=O)c1c(O)c2ccccc2n(C)c1=O`
## Output active

## Input Next molecule up: `O=C(CCN1C(=O)/C(=C\C=C\c2ccccc2)SC1=S)Nc1ccc(C(=O)O)cc1`
## Output active

## Input Next molecule up: `Cc1[nH]n(-c2ccc(F)cc2)c(=O)c1/C=N/c1sc2c(c1C#N)CCCC2`
## Output active

## Input Next molecule up: `O=C(NC(=S)N1CCCc2ccccc21)c1ccccc1`
## Output inactive

## Input Next molecule up: COc1ccc(NC(=O)CCN2C(=O)C3C4C=CC(C4)C3C2=O)cc1 (centres undefined)
## Output inactive

## Input Next molecule up: `CCOC(=O)C1=C(O)c2ccccc2C(=O)/C1=C\c1ccc(CC)cc1`
## Output active

## Input Next molecule up: `O=C(CCN1C(=O)/C(=C/c2cccs2)SC1=S)Nc1cccc(C(=O)O)c1`
## Output inactive

## Input Next molecule up: `c1ccc(-c2ccnc3nc(N4CCN(c5ccccc5)CC4)nn23)cc1`
## Output inactive

## Input Next molecule up: `Cn1c(=O)c(-c2cc(=O)[nH][nH]2)c(O)c2ccccc21`
## Output active

## Input Next molecule up: `Cn1c(=O)cc(-c2ccccc2)c2ccccc21`
## Output inactive

## Input Next molecule up: `CC(C)C(=O)Nc1c(-c2ccccc2F)c(=O)c2ccccc2n1C`
## Output inactive

## Input Next molecule up: `O=C(NC(=S)N1CCc2ccccc21)c1ccco1`
## Output inactive

## Input Next molecule up: CC1Oc2ccccc2N(CC(=O)N2CCCCCC2)C1=O (centres undefined)
## Output inactive

* * *

Target: Voltage-gated inwardly rectifying potassium channel KCNH2 (Homo sapiens) (UniProt Q12809)
Sequence (Q12809 whole entry, looked up): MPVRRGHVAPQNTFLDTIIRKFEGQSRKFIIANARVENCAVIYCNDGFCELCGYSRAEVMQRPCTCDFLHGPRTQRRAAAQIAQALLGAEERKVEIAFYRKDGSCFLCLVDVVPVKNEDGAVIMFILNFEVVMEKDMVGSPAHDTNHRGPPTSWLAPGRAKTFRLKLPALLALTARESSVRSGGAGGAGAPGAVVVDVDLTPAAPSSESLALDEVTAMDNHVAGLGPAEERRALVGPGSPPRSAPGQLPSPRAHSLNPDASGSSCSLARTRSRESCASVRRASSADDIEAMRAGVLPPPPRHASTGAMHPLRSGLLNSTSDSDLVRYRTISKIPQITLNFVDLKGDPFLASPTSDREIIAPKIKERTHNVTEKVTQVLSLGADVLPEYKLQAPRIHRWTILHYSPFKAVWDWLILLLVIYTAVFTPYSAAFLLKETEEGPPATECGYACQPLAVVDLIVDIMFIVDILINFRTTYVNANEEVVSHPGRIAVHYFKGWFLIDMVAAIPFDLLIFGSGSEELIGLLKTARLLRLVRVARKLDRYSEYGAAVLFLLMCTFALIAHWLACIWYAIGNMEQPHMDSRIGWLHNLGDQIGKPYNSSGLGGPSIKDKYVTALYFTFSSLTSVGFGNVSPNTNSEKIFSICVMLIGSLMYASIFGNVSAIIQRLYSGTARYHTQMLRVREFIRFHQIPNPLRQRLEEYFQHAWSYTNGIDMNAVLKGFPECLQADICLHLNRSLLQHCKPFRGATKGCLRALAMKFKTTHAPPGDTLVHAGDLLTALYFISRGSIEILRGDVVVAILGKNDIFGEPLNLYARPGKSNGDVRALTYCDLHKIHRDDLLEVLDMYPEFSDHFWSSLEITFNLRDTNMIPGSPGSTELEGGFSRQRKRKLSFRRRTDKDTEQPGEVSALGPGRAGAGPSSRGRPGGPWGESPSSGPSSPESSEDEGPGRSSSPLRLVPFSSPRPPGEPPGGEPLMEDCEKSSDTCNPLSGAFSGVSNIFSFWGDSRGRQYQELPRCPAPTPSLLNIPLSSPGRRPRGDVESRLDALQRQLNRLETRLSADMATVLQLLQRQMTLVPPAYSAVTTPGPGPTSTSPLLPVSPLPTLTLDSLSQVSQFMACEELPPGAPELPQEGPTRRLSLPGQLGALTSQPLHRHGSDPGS
Experiment: hERG protection against dofetilide inhibition, confirmation, cell-based, thallium flux, duplicate retest, dofetilide IC70 (AID 1835)
Conditions: hERG cell line, FluxOR thallium flux, dofetilide-blocked; at 10 µM; active compounds read high
Hit rate of the full screen: of about 2,400 compounds, about 750 (31%) were called active. The list shows a part of the results.
Exercise: for every item that follows, state its recorded activity increase over dofetilide control, less the hit threshold.
Dear colleague, please return just the value in %, with no unit written.

## Input Request the reported activity increase over dofetilide control, less the hit threshold associated with CC(NC(=O)C1CCN(S(=O)(=O)c2cccc3cccnc23)CC1)c1ccccc1 (stereo not given)
## Output -15

## Input Next molecule up: `COc1ccc(NC(=O)CN2C(=O)S/C(=C/c3cccn3-c3ccc(C(=O)O)cc3)C2=O)cc1`
## Output 94

## Input Next molecule up: Cc1ccc(C(C)NC(=O)c2ccc3c(c2)OCO3)cc1C (stereo not given)
## Output 0

## Input Next molecule up: `COCC(=O)Nc1cc(C)cn(Cc2c(F)cccc2Cl)c1=O`
## Output -5

## Input Next molecule up: `Cc1cccc(NC(=O)CN2C(=O)S/C(=C\c3cccn3-c3cccc(C(=O)O)c3)C2=O)c1`
## Output 7

## Input Next molecule up: `O=c1c2cc(Cl)ccc2nc(-c2ccc([N+](=O)[O-])cc2)n1O`
## Output 16

## Input Next molecule up: `O=c1c2cc(Br)ccc2nc(-c2ccc([N+](=O)[O-])cc2)n1O`
## Output 47

## Input Next molecule up: `Cc1ccc(Nc2nc(-c3ccncc3)cs2)cc1`
## Output -8

## Input Next molecule up: Cc1ccc2[nH]c(=O)c(C(c3nnnn3C3CCCC3)N3CCCc4ccccc43)cc2c1 (stereo not given)
## Output -4

## Input Next molecule up: CC(NC(=O)NC1CCCCC1)c1ccc2c(c1)OCO2 (stereo not given)
## Output 1

* * *

Molecular target: Voltage-gated inwardly rectifying potassium channel KCNH2 (Homo sapiens)
Assay: hERG protection against dofetilide inhibition, confirmation, cell-based, thallium flux, duplicate retest, dofetilide IC70 (AID 1835)
Details: hERG cell line, FluxOR thallium flux, dofetilide-blocked; at 10 µM; active compounds read high
Hit rate of the full screen: of about 2,400 compounds, about 750 (31%) were called active. The list shows a part of the results.
recorded_metric: activity increase over dofetilide control, less the hit threshold (%)
Dear colleague, please return just the value in %, with no unit written.

## Input Request the reported activity increase over dofetilide control, less the hit threshold associated with Cc1nnc(NC(=O)C2CCCN(S(=O)(=O)c3ccccc3C(F)(F)F)C2)s1 (stereo not given)
## Output 4

## Input Next molecule up: `CCCCN1C(=O)/C(=C2/Sc3ccc(Cl)cc3N2CC)SC1=S`
## Output 42

## Input Next molecule up: COc1ccccc1NC(=O)C1CCCN1C(=O)Nc1ccc(F)cc1 (stereo not given)
## Output -14

## Input Next molecule up: `O=C(N/N=C/C(Cl)=C/c1ccc([N+](=O)[O-])cc1)C(=O)Nc1ccc(C(=O)O)cc1`
## Output -13

## Input Next molecule up: `Fc1ccc(NC(=S)Nc2nccs2)cc1`
## Output 0

## Input Next molecule up: `COc1ccc(-c2cc(C(F)(F)F)nc(N3CCCCC3)n2)cc1OC`
## Output -19

## Input Next molecule up: CCc1nnc(NC(=O)C2CCCCN2S(=O)(=O)c2ccccc2)s1 (stereo not given)
## Output -16

## Input Next molecule up: `COc1cccc(OC)c1C(=O)NC(=S)N1CCN(c2ccc(C(F)(F)F)cc2[N+](=O)[O-])CC1`
## Output 6

## Input Next molecule up: `C=CCn1c(N2CCCCCC2)nc2c1c(=O)n(C)c(=O)n2C`
## Output -7

## Input Next molecule up: `Cc1ccccc1NC1=C/C(=N\S(=O)(=O)c2ccc(C(=O)O)cc2)c2ccccc2C1=O`
## Output -6

* * *

Exercise: for every item that follows, state its recorded activity increase over dofetilide control, less the hit threshold.
Target: Voltage-gated inwardly rectifying potassium channel KCNH2 (Homo sapiens) (UniProt Q12809)
Assay: hERG protection against dofetilide inhibition, confirmation, cell-based, thallium flux, duplicate retest, dofetilide IC70 (AID 1835)
Settings: hERG cell line, FluxOR thallium flux, dofetilide-blocked; at 10 µM; active compounds read high
The whole screen tested about 2,400 compounds, of which about 750 (31%) were called active. Some of the results follow.

## Input Request the reported activity increase over dofetilide control, less the hit threshold associated with Cc1cccc(/C=C2/S/C(=N/N=C3\CC4CCC3(C)C4(C)C)NC2=O)c1 (centres undefined)
## Output 5% (active)

## Input Next compound up: `CC(C)(C)NS(=O)(=O)c1ccc(NC(=O)c2cc(-c3ccccc3)nc3ccccc23)cc1`
## Output -11% (inactive)

## Input Next compound up: `COC(=O)c1ccc(NC(=S)NC(=O)c2cc(-c3ccccc3)nc3ccccc23)cc1`
## Output 11% (active)

## Input Next compound up: `COC(=O)c1ccc(NC(=S)NC(=O)c2c(-c3ccccc3)noc2C)cc1`
## Output -15% (inactive)

## Input Next compound up: COc1ccc(/C=C2/S/C(=N/N=C3\CC4CCC3(C)C4(C)C)NC2=O)cc1 (centres undefined)
## Output 20% (active)

## Input Next compound up: Cc1c(OC(C(=O)O)c2ccccc2)ccc2c(-c3ccccc3)cc(=O)oc12 (centres undefined)
## Output -3% (inactive)

## Input Next compound up: CC12CCC(C/C1=N\N=C1\NC(=O)/C(=C\c3ccc(Cl)cc3)S1)C2(C)C (centres undefined)
## Output -3% (inactive)

## Input Next compound up: `Cc1ccccc1NC(=S)NC(=O)c1cc(-c2ccccc2)nc2ccccc12`
## Output 27% (active)

## Input Next compound up: `O=C(NC(=S)Nc1ccccc1)c1cc(-c2ccccc2)nc2ccccc12`
## Output 8% (active)
